Biological target: MSI1 full-length (mouse, UniProt Q61474 1-362)
Sequence (Q61474 whole entry): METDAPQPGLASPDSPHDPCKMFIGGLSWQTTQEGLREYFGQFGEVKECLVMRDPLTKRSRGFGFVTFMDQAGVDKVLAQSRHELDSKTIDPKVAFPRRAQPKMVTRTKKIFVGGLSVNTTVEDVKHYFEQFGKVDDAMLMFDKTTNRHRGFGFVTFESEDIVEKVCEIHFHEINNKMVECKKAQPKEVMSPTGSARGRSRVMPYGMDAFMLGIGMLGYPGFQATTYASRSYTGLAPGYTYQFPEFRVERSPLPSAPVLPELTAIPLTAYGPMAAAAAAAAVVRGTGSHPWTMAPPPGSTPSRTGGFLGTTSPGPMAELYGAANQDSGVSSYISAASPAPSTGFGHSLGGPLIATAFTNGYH
Test: nsRBNS (natural sequence RNA bind-n-seq); RBNS binding buffer (assumed for nsRBNS): 25 mM Tris pH 7.5, 150 mM KCl, 3 mM MgCl2, 0.01% Triton X-100, 500 ug/ml BSA, 20 U/ml SUPERase-In, 4 C; UNK is unkempt and MSI1 is Musashi-1; names of the RNAs are library labels; protein concentration not given here; high values mean tight binding
In all, about 5,800 sequences were measured (“enrichment r”: median about 0.54, highest 2% from about 16 on). For the sample, the highest values were picked, then their nearest neighbours and some sequences at random.
Some binders, each annotated with its measured binding signal.
The reply should consist of the numeric value with the unit placed after it.

Example results:
binder: ENSG00000107863:be:win_2201|CDS|ENSG00000107863|bound_else_gene|NA|bound_elsewhere_windowed (ssRNA) RNA: GGGAGUUCUACAGUCCGACGAUCCUGUCAUCCUAAGGGAAAAACCUCCAUCUGGACGCCAGACACCGCAGCCUUUAAGGCAUCAGUCUUACAUCUUGGCAGUAAAUGACCAGGAGACCGGGUCAGACACUACCUGCUGGCUGCCAACAGAGGAUUGAGCAUCA
binding signal: 0.283 enrichment R
//
binder: chr18:68676332:68676434:-|3pUTR|ENSG00000166479|msi1_unk|FALSE|overlapping (ssRNA) RNA: GGGAGUUCUACAGUCCGACGAUCAUCAAGAUUAUGAGGUUAAAAAUAAUGUGGUUUUAUAUAGCAUAGUGGUUUUAUUUUGUUAGUUAUUUUUAAAGGAGAAGAAAUGUUACUUUUUAACUUUAUACUCAGUUGCAUUAUCAUCAACAGAGGAUUGAGCAUCA
binding signal: 69.1 enrichment R

Let's switch to this binder now.
Quickly give me recorded binding signal for chr4:17843545:17843646:+|3pUTR|ENSG00000109805|msi1|total|mutant (ssRNA) RNA: GGGAGUUCUACAGUCCGACGAUCCUGUGCGCUUCCACGUUACUUUGGCCUGUAUUAAAGCAGCCGAGCAGCAUCAGUUAUUACCGUCCAGAAAAAGUGUGCAUCAGUCAGUCACACAGAUUUAUCACAAUCUGAGGUGGGCCUCAACAGAGGAUUGAGCAUCA
0.782 enrichment R
